Compound	melting point
CCCCc1nc2c(N)nc3ccc(O)cc3c2n1CCCCNS(=O)(=O)c1ccccc1	219 to 223 °C
O=C1c2ccccc2OCOc2ccccc21	93 to 95 °C
O=[N+]([O-])c1cc(-c2cn3c(n2)sc2ccccc23)cc(O)c1O	303 to 305 °C
CC1=NN(c2cc(Cl)c(Sc3ccc(Cl)cc3)c(Cl)c2)C(=O)NC1	258 to 259 °C
C=CCOCCc1ccc(OCC(O)CNC(C)C)cc1 (stereo not given)	52 to 53 °C
CCCOc1ccccc1-c1nc2cc(N)c(N)cc2c(=O)[nH]1	195 to 197 °C
COc1ccc2c(c1)c(=O)[nH]c1c2c2ccccc2n1C	250 °C
O=C(c1ccccc1)c1ccc2nc3[nH]c(=O)[nH]c3cc2c1	> 300 °C
CC(=O)[NH+]([O-])C[C@@H]1CN(c2ccc(N3CCOCC3)c(F)c2)C(=O)O1 (stereo not given in full)	202 to 204 °C
CC(C)(C)OC(=O)N(C(=N)NS(=O)(=O)C(F)(F)F)C(=O)OC(C)(C)C	114 to 115 °C

====

melting point: recorded values

Molecule	melting point
COc1ccc(N2CCOCC2)c2sc(C(=O)NC3CCCCC3=O)nc12 (stereo not given)	165 °C
CC(=O)Oc1c(C(C)C)c(-c2ccc(F)cc2)c(O)c(C(C)C)c1C(C)C	174 to 177 °C
O=C1c2ccccc2C(O)N1CCCO[N+](=O)[O-] (stereo not given)	72 to 74 °C
CCCn1c(COCC)nc2c(N)nc3ccc(OCCN)cc3c21	157 to 159 °C
COc1ccccc1C=CC(=O)C1=C(O)C(=C(C)Nc2ccccc2N)C(=O)OC1=O	148 to 150 °C

====

Molecule	melting point
CC(C)(C)C(=O)OCOC(=O)c1cccnc1Nc1cccc(C(F)(F)F)c1	55 to 56 °C
CC(C)(C)OC(=O)N1CCCC(c2ccc3c(c2)C2(CO3)C(=O)Nc3ccccc32)C1 (stereo not drawn)	120 to 123 °C
Oc1ccc2nc(-c3cccc4ccccc34)oc2c1	185 to 187 °C
COc1cc(Nc2c(C#N)cnc3cc(OCCCN4CCS(=O)(=O)CC4)c(OC)cc23)c(Cl)cc1Cl	118 to 120 °C
O=C(C=Cc1ccncc1)c1ccco1	122 to 124 °C
CC(=O)Nc1cc(C(C)(C)C)c(SC2=C(O)CC(CCc3ccc(O)cc3)(C3CCCC3)OC2=O)cc1C (racemic)	181 °C
C[C@@H](Nc1c(-c2c(F)cc(F)cc2F)c(Cl)nc2ncnn12)C(C)(C)C	169 to 171 °C
CCOC(=O)c1ccc2c(c1)ncn2-c1cc(Cl)ccc1O	> 360 °C
O=C1CCc2c(-c3ccc(F)cc3)sc(-c3ccncc3)c21	155 to 157 °C
O=C1Nc2cc(F)ccc2Nc2ccsc21	225 to 230 °C
C=Cc1cnc2c([N+](=O)[O-])cccc2c1	116 to 117 °C
CCOc1cc2oc(=O)c3c(c2cc1OCC)CCN(CCN1CCCCC1)C3	144 to 146 °C
COc1cccc(-c2ccc(C(O)C(F)(F)F)cc2)c1 (stereo not drawn)	108 °C
CN(C)C(=O)COC1c2ccccc2CCc2ccccc21	73 to 75 °C
COc1cc([N+](=O)[O-])c(F)cc1Cl	69 to 70 °C
COc1cccc2oc(-c3ccc(F)cc3)cc(=O)c12	178 °C
COC(=O)COc1ccc(C(C)=O)c(C)c1	49 to 50 °C
O=C1C2CCC(N1c1ccc(F)cc1)n1c(=O)n(-c3ccccc3)c(=O)n12 (stereo not drawn)	167 to 168 °C
O=C1OCCCCOC(=O)c2ccc(cc2)-c2ccc1cc2	266 °C
O=C(C1CCC(Nc2ncc3ncnc(Nc4ccc(F)c(Cl)c4)c3n2)CC1)N1CCNCC1 (stereo not drawn)	178 to 182 °C
CCNC(=O)c1cc(N(C)C)ccc1[Si](C)(C)C	141 to 143 °C
O=C(CN1C(=O)C2(COc3cc4c(cc32)CCO4)c2c(Cl)cccc21)Nc1ccccc1F (stereo not drawn)	243 to 245 °C
O=C1CCC(=O)C1C(=O)CCc1ccc(Cl)c(Cl)c1	126 to 127 °C
CCOC(=O)N1CCC(Nc2ccc(C(F)(F)F)c([N+](=O)[O-])c2)CC1	127 °C
CC(C)NC(=NC(=Nc1ccccc1)N1CCOCC1)C(C)C	132 to 135 °C
CCn1c(=O)ccc2cnc(Nc3ccc(F)cc3)nc21	215 to 217 °C
COc1ccc2c(ccc3cc(OC)c(OC)c(OC)c32)c1	142 to 144 °C
CC(C)(CO)CCNC(=O)OC(C)(C)C	75.5 to 76.5 °C
O=c1ccsn1CNc1ccc(Cl)c(Cl)c1	120 to 122 °C
N#CN=C1NCCN1Cc1cccnc1	126 to 128 °C
CC#CCOc1ccc(S(=O)(=O)NC(C(=O)NO)c2ccc(OCCN3CCOCC3)cc2)cc1 (stereo not drawn)	80 to 86 °C
c1ccc2c(c1)Cc1cc(C3(Cn4cncn4)OCCO3)ccc1-2	187 °C
N#Cc1ccccc1N1CCN(Cc2nc3ccccc3[nH]2)CC1	236 to 237 °C
O=C(Cl)c1c(Cl)ccc2c1OCCO2	50 °C
CNC(=O)/C(=N/OC)c1ccccc1Oc1ccc(C)c(C)c1	98 to 100 °C
COC(OC)C(=O)C=Cc1ccc(-c2cccs2)s1	74 °C
Cc1ccc(S(=O)(=O)n2c(CCCC(=O)O)cc3nc(Cl)ccc32)c(Cl)c1	168 to 169 °C
N#CC1=C(C2CCCC2)Nc2n[nH]cc2C1c1cccc(C#N)c1Br (stereo not drawn)	247 °C
C=C1CC(COc2ccc3c(C)c(Cl)c(=O)oc3c2)(c2ccccc2)OC1=O (stereo not drawn)	149 to 150 °C
CN(C)C(=O)C(Nc1ccccc1)c1ccccc1 (stereo not drawn)	134 to 137 °C
COc1c(C)c(N2CCN(c3ccc(C)cc3)CC2)c(C)c2c1OC(C)(C)C2	150 to 152 °C
Cc1cccc(NC(=O)NC(CCC(=O)O)C(=O)N(CC(=O)OC(C)(C)C)c2ccccc2)c1 (racemic)	191 °C
O=C=Nc1ccc(N2CCOCC2)cc1	221 to 225 °C

====

Quick reference: melting point of the listed items.

Molecule	melting point
CCCCc1nc(C(=O)O)c(Sc2ccc(OC)cc2)n1Cc1cc2c(cc1Cl)OCO2	82 °C
COC(=O)c1cc(OC)nc(C)n1	90 to 93 °C
CC(C)c1nc2c(C(F)(F)F)cccc2c(O)c1C(=O)O	204 °C
C=Cc1ccc(C(=O)O)cc1C12CC3CC(CC(C3)C1)C2	315 to 317 °C
CCCn1nc2c(N)nc3c(c2c1CCC1CCCCC1)CCCC3	173 to 174 °C
O=C(O)c1cc(F)c(F)cc1NC1CC1	175 to 176 °C
NC(=O)CCc1cc(C(=O)O)cc(S(N)(=O)=O)c1Oc1ccccc1	192 to 196 °C
COC(=O)C(Oc1cc(OCc2ccsc2)ccc1C#N)c1ccccc1C(F)(F)F (racemic)	104 to 108 °C
CCCS(=O)(=O)ON=C(Cl)c1ccc(C)cc1	57.5 to 60.5 °C
CC(C)(C)c1ccc2c(c1)C(C(=O)O)c1ccccc1CO2 (stereo unspecified)	197 to 198 °C
Cc1c(O)ccc2c(C(F)(F)F)cc(=O)oc12	114 to 116 °C
CCC(CN1CCCC1)C(C#N)(c1ccccc1)c1ccccc1 (stereo unspecified)	90 °C
C=CCSc1ccc(-c2ccccc2)nn1	96 to 98 °C
Nc1cnc2cccnc2c1O	315 to 320 °C
CC1CCC(=NNc2ccccc2)c2ncc(C(=O)O)c(=O)n21 (single isomer, unassigned; (-))	255 to 256 °C
O=C(O)c1ccc2c(c1)Sc1ccccc1S2	220 °C
CC1(Cl)C(=S)Nc2ccc(Cl)cc21 (stereo unspecified)	248 to 251 °C
CNC1CCN(c2ncc3ncnc(Nc4ccc(F)c(Cl)c4)c3n2)CC1	174 to 176 °C
O=[N+]([O-])c1ccc(Nc2ccccn2)c(C(F)(F)F)c1	83 to 84 °C
O=C(Nc1ccc(-c2ccc(C(=O)N3CCN4CCC3CC4)o2)cc1)Nc1cccc(C(F)(F)F)c1	171 °C
CC(=O)OCC1OC(n2cc(C3=C(c4c[nH]c5ccccc45)C(=O)N(C)C3=O)c3cccnc32)C(OC(C)=O)C(OC(C)=O)C1OC(C)=O (stereo unspecified)	119 to 121 °C
O=C(O)C1=Cc2cc(Cl)cc(-c3ccc(Cl)cc3)c2OC1C(F)(F)F (stereo unspecified)	206 to 207 °C
Cc1ncc(CS)c2c1OC(c1ccccc1)OC2 (stereo unspecified)	110 to 112 °C
CN1OCC(=O)N(c2ccc(C(C)(C)C)cc2)C1=S	168 to 170 °C
Cc1ccc(C(=O)N(c2ccccc2)c2ccc(OCCN(C)C)cc2)cc1	74.5 to 77.5 °C
Nc1cc(S(=O)(=O)c2ccccc2)ccc1Cl	105 to 107 °C
O=C(c1ccc(Cl)cc1)c1cccc2c1CCC2C(=O)O (stereo unspecified)	137 to 139 °C
O=C(CCCl)Nc1ccc(F)c(Cl)c1	94 °C
COc1ccc(N2CCN(CCC3OCCc4cc([Si](C)(C)C)ccc43)CC2)cc1 (stereo unspecified)	78 to 80 °C
COC(=O)CCCCCOc1ccc(NC(=O)CCCCCOCc2ccccc2)cc1	64 to 65.6 °C
CC(C)C(=N)Nc1ccccc1N1CCOCC1	138 °C
Nc1ccn(C[C@@H]2O[C@H](CO)[C@@H](O)[C@@H]2O)c(=O)n1	230 to 232 °C
O=c1ccc(-c2c(-c3ccccc3)nn3ccccc23)nn1C1CCC2(CC1)OCCO2	189 to 190 °C
c1ccc(-c2cc(N3CCNCC3)nc(-c3ccccn3)n2)nc1	159 to 161 °C
CC(C)C[C@H](NC(=O)OCc1ccccc1)C(=O)N[C@@H](Cc1ccccc1Cl)C(=O)CSCc1ccco1	110 °C
N#Cc1c(N)cccc1Oc1ccccc1	66 to 67 °C
CC(C)c1nc2c(nc1C(C)C)-c1c(c(-c3ccc(C(=O)O)cc3)nn1Cc1cccnc1)CC2	204 to 206 °C
CCCc1cc2c(=O)[nH]c(C(=O)OCC)nc2s1	169 to 170 °C
CCOC(=O)C1CCc2cc(OC)ccc2C1=O (stereo unspecified)	58 to 60 °C
O=C(O)Cc1ccc2c(c1)sc1c(Cl)cccc12	226 to 228 °C
C[C@@H](N(C(=O)CN)C(=O)c1ccc(C(F)(F)F)cc1)[C@](O)(Cn1cncn1)c1ccc(F)cc1F (relative stereo)	147 to 148 °C
